# targetOrTestSystem: human recombinant HDAC6 (Homo sapiens, UniProt Q9UBN7)
# procedureText: In vitro HDAC enzyme activity inhibition assay, HDAC6 (HDAC Fluorimetric Drug Discovery Kit)
# testParameters: human recombinant HDAC6, same protocol as the HDAC1 test

# compound, IC50
data = [
    ("FC(F)c1nnc(-c2ccn3cc(COc4ccccc4)nc3c2)o1 [Compound 3719]", "211 nM"),
    ("Cc1cccc(NCc2cn3ccc(-c4nnc(C(F)F)o4)cc3n2)c1 [Compound 3679]", "147 nM"),
    ("O=C(N1CCN(C(=O)C(F)(F)F)CC1)N(Cc1cn2ccc(-c3nnc(C(F)F)o3)cc2n1)c1ccccc1 [Compound 4044]", "130 nM"),
    ("FC(F)c1nnc(-c2ccn3cc(COc4ccc(C(F)(F)F)cc4)nc3c2)o1 [Compound 3724]", "893 nM"),
    ("CC(CO)N1CCN(C(=O)N(Cc2cn3ccc(-c4nnc(C(F)F)o4)cc3n2)c2cccc(F)c2)CC1 (centres unmarked) [Compound 4086]", "201 nM"),
    ("Fc1ccc(Cc2cn3ccc(-c4nnc(C(F)F)o4)cc3n2)cc1F [Compound 3587]", "334 nM"),
    ("O=C(C1CCN(C2CCCCC2)CC1)N(Cc1cn2ccc(-c3nnc(C(F)F)o3)cc2n1)c1cccc(F)c1 [Compound 4143]", "149 nM"),
    ("COC(=O)N1CCN(C(=O)N(Cc2cn3ccc(-c4nnc(C(F)F)o4)cc3n2)c2ccccc2)CC1 [Compound 4046]", "125 nM"),
]

---

# maps each entry to its HDAC6 Selectivity (fold)
# targetOrTestSystem: human recombinant HDAC6 (Homo sapiens, UniProt Q9UBN7)
# Construct: purchased Calbiochem Inc. 382180
# procedureText: In vitro HDAC enzyme activity inhibition assay, HDAC6 (HDAC Fluorimetric Drug Discovery Kit)
# Assay type: biochemical
# testParameters: HDAC6 versus HDAC1
endpointLabel: HDAC6 Selectivity (fold)

# compound, measValue
measured = [
    ("CCN1CC(C(=O)N(Cc2cn3ccc(-c4nnc(C(F)F)o4)cc3n2)c2cccc(F)c2)C1", "315 fold"),
    ("CC(CO)N1CC(C(=O)N(Cc2cn3ccc(-c4nnc(C(F)F)o4)cc3n2)c2cccc(F)c2)C1 (centres unmarked)", "373 fold"),
    ("Fc1ccc(Cc2cn3ccc(-c4nnc(C(F)F)o4)cc3n2)cc1F", "150 fold"),
    ("CC(C)N1CC(C(=O)N(Cc2cn3ccc(-c4nnc(C(F)F)o4)cc3n2)c2cccc(F)c2)C1", "395 fold"),
    ("O=C(C1CN(c2ccccn2)C1)N(Cc1cn2ccc(-c3nnc(C(F)F)o3)cc2n1)c1ccccc1", "199 fold"),
    ("O=C(C1COC1)N1CC(C(=O)N(Cc2cn3ccc(-c4nnc(C(F)F)o4)cc3n2)c2cccc(F)c2)C1", "177 fold"),
    ("Cc1cccc(OCc2cn3ccc(-c4nnc(C(F)F)o4)cc3n2)c1", "121 fold"),
    ("CCN1CCC(C(=O)N(Cc2cn3ccc(-c4nnc(C(F)F)o4)cc3n2)c2cccc(F)c2)CC1", "292 fold"),
]

---

Reported pIC50 values for the following compounds.
# targetOrTestSystem: human recombinant HDAC6 (Homo sapiens, UniProt Q9UBN7)
# Sequence (Q9UBN7 1-1215): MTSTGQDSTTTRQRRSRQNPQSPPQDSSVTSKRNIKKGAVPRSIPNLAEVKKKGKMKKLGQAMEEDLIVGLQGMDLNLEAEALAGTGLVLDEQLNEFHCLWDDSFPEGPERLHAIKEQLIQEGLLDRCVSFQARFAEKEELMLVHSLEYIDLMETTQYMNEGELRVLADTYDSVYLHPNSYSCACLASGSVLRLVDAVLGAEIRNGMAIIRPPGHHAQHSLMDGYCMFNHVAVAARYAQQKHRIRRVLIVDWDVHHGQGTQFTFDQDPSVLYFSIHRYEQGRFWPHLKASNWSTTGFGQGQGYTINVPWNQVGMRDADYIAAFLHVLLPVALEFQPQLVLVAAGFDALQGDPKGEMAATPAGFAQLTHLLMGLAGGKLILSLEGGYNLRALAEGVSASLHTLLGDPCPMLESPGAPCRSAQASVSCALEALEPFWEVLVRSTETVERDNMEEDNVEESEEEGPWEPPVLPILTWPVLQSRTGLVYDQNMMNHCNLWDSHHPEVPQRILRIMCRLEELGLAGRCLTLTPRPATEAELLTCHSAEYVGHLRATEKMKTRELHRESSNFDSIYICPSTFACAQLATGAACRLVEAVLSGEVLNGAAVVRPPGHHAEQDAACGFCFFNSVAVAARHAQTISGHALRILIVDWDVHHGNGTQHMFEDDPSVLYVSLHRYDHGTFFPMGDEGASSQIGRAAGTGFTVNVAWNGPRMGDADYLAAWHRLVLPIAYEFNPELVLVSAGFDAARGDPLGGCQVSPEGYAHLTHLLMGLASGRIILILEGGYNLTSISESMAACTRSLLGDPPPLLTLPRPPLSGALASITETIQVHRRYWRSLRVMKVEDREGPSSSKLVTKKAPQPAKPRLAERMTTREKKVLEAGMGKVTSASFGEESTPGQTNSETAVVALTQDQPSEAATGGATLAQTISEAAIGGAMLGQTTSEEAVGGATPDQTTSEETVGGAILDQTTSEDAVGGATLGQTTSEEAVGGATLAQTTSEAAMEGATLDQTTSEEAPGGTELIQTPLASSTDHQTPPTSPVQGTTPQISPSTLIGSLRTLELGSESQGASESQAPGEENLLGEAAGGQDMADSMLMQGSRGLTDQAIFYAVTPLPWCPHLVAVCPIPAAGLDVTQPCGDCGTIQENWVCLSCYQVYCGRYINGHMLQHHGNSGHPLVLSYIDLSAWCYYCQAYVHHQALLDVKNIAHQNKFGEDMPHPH
# procedureText: In vitro HDAC enzyme activity inhibition assay, HDAC6 (HDAC Fluorimetric Drug Discovery Kit)
# testParameters: human recombinant HDAC6, same protocol as the HDAC1 test
pIC50: −log10 of the molar value.
endpointLabel: pIC50

# compound, endpointLabel, measValue
records = [
    ("COc1ccc(Cc2cn3ccc(-c4nnc(C(F)F)o4)cc3n2)cc1 [Compound 3590]", "pIC50", 6.36),
    ("O=C(CO)N1CCN(C(=O)N(Cc2cn3ccc(-c4nnc(C(F)F)o4)cc3n2)c2ccccc2)CC1 [Compound 4042]", "pIC50", 6.59),
    ("CN1CCN(C(=O)N(Cc2cn3ccc(-c4nnc(C(F)F)o4)cc3n2)c2cccc(F)c2)CC1 [Compound 4083]", "pIC50", 6.33),
    ("FC(F)c1nnc(-c2ccn3cc(Cc4ccc(Cl)cc4)nc3c2)o1 [Compound 3593]", "pIC50", 6.58),
    ("O=C(C1CCN(C2CCOCC2)CC1)N(Cc1cn2ccc(-c3nnc(C(F)F)o3)cc2n1)c1ccccc1 [Compound 4120]", "pIC50", 6.29),
    ("O=C(C1CCN(C2CC3(CCC3)C2)CC1)N(Cc1cn2ccc(-c3nnc(C(F)F)o3)cc2n1)c1cccc(F)c1 [Compound 4618]", "pIC50", 6.79),
    ("O=C(C1CCN(C(=O)C(F)(F)F)CC1)N(Cc1cn2ccc(-c3nnc(C(F)F)o3)cc2n1)c1cccc(F)c1 [Compound 4152]", "pIC50", 6.69),
    ("FC(F)c1nnc(-c2ccn3cc(CNC4CCCCC4)nc3c2)o1 [Compound 3678]", "pIC50", 6.53),
    ("O=C(N1CCN(c2ncccn2)CC1)N(Cc1cn2ccc(-c3nnc(C(F)F)o3)cc2n1)c1ccccc1 [Compound 4049]", "pIC50", 7.03),
    ("O=C(C1CCN(c2ncccn2)CC1)N(Cc1cn2ccc(-c3nnc(C(F)F)o3)cc2n1)c1ccccc1 [Compound 4132]", "pIC50", 6.18),
    ("O=C(C1CCN(C2CCOCC2)CC1)N(Cc1cn2ccc(-c3nnc(C(F)F)o3)cc2n1)c1cccc(F)c1 [Compound 4144]", "pIC50", 6.61),
    ("CC(C)c1cccc(Cc2cn3ccc(-c4nnc(C(F)F)o4)cc3n2)c1 [Compound 3594]", "pIC50", 6.25),
    ("O=C(C1COC1)N1CCC(C(=O)N(Cc2cn3ccc(-c4nnc(C(F)F)o4)cc3n2)c2ccccc2)CC1 [Compound 4126]", "pIC50", 6.39),
    ("O=C(C1COC1)N1CC(C(=O)N(Cc2cn3ccc(-c4nnc(C(F)F)o4)cc3n2)c2cccc(F)c2)C1 [Compound 4201]", "pIC50", 6.55),
    ("O=C(C1CN(c2ccccn2)C1)N(Cc1cn2ccc(-c3nnc(C(F)F)o3)cc2n1)c1ccccc1 [Compound 4176]", "pIC50", 6.60),
    ("O=C(C1CCN(C(=O)C(F)(F)F)CC1)N(Cc1cn2ccc(-c3nnc(C(F)F)o3)cc2n1)c1ccccc1 [Compound 4127]", "pIC50", 6.21),
    ("O=C(N1CCN(C2CCOCC2)CC1)N(Cc1cn2ccc(-c3nnc(C(F)F)o3)cc2n1)c1ccccc1 [Compound 4038]", "pIC50", 6.88),
    ("O=C(C1CN(C2CCC(F)(F)CC2)C1)N(Cc1cn2ccc(-c3nnc(C(F)F)o3)cc2n1)c1cccc(F)c1 [Compound 4196]", "pIC50", 6.74),
    ("O=C(N1CCN(C(=O)C(F)(F)F)CC1)N(Cc1cn2ccc(-c3nnc(C(F)F)o3)cc2n1)c1cccc(F)c1 [Compound 4096]", "pIC50", 6.38),
    ("CS(=O)(=O)N1CCN(C(=O)N(Cc2cn3ccc(-c4nnc(C(F)F)o4)cc3n2)c2cccc(F)c2)CC1 [Compound 4097]", "pIC50", 6.83),
    ("COC(=O)N1CC(C(=O)N(Cc2cn3ccc(-c4nnc(C(F)F)o4)cc3n2)c2ccccc2)C1 [Compound 4174]", "pIC50", 6.53),
    ("O=C(C1CN(C2CCC2)C1)N(Cc1cn2ccc(-c3nnc(C(F)F)o3)cc2n1)c1ccccc1 [Compound 4162]", "pIC50", 6.45),
    ("CC(C)N1CCC(C(=O)N(Cc2cn3ccc(-c4nnc(C(F)F)o4)cc3n2)c2ccccc2)CC1 [Compound 4116]", "pIC50", 6.50),
    ("O=C(N1CCN(C2COC2)CC1)N(Cc1cn2ccc(-c3nnc(C(F)F)o3)cc2n1)c1cccc(F)c1 [Compound 4088]", "pIC50", 6.49),
]
